Target: human dopamine D4 (Homo sapiens, UniProt P21917)
Construct: purchased BioSignal, Inc. (Montreal, Canada)
Sequence (P21917 whole entry): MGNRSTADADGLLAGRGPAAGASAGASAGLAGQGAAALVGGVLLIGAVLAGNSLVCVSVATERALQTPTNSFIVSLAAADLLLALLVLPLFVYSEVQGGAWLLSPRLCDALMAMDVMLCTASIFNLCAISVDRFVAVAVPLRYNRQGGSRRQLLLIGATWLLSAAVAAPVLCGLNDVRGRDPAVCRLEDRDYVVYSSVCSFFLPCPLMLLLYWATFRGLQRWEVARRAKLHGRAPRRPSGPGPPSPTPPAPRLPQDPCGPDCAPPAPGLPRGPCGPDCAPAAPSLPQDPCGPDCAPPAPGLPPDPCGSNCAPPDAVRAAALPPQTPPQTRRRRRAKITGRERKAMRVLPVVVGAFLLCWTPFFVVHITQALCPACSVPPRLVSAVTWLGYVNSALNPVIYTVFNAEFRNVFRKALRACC
Assay: Radioligand binding, dopamine D4 receptor
Conditions: read-out: hD4 Ki; Table 9
Protocol: Other receptors: Cell membranes expressing human dopamine D1, D2, D4 and rat D3 receptors were purchased through BioSignal, Inc. (Montreal, Canada). […] Binding data were analyzed using nonlinear regression and statistical techniques available in the GraphPAD Prism package (San Diego, CA). […]
quantity kind: pKi
Schema: pKi number; meaning minus log10 of the concentration expressed in molar units.

The value of pKi recorded for COC[C@@H]1[C@@H](c2ccccc2)OCCN1c1nc(Nc2ccc(C)cc2)cc(N2CCCCC2)n1 [Example 49] when tested on human dopamine D4 (Homo sapiens, UniProt P21917) reads 4.34

---

Please go through the items and note down their pKi.
Biological target: Human 5HT2A Receptor (Homo sapiens, UniProt P28223)
Construct: expressed in transfected cells; host or cells: COS-7 cells (pCEXV-3 vector, DEAE-dextran)
Sequence (P28223 whole entry): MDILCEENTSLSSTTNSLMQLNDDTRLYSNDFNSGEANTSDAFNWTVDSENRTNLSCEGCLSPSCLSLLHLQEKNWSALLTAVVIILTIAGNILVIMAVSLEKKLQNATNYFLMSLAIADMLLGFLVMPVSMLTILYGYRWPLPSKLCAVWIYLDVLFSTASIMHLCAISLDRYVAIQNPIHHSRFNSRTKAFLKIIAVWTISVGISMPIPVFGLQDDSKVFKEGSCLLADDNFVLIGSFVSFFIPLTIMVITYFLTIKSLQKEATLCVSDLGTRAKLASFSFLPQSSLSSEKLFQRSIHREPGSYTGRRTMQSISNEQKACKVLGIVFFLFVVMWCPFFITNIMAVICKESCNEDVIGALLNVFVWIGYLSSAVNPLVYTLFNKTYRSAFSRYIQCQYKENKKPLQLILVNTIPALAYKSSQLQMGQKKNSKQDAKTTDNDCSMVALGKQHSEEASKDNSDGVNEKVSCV
Experiment: Radioligand binding, 5HT2A receptor ([3H]ketanserin)
Settings: Table 7; read-out: h5HT2A Ki
FYI, pKi means -log10 of a concentration in mol per litre.

Sample Cc1ccc(Nc2cc(N(C)C)nc(N(C)CCc3c[nH]c4ccccc34)n2)cc1 [Example 77] ; pKi observed: 5.65

Measured pKi of Cc1ccc(Nc2cc(N3CCCCC3)nc(N(C)CCc3ccccc3)n2)cc1 [Example 22] : 4.68

CN(C)c1cc(Nc2ccc(Cl)c(Cl)c2)nc(Nc2ccccc2)n1 [Example 60] has a reported pKi of 4.58

The compound Cc1ccc(Nc2cc(N3CCCCC3)nc(N(C)CCc3c[nH]c4ccccc34)n2)cc1 [Example 11] showed pKi equal to 5.17

Kindly note the recorded pKi for COc1cccc(Nc2cc(N3CCCCC3)nc(N(C)CCc3c[nH]c4ccccc34)n2)c1 [Example 17] , which is 5.15

// pKi lookup, compound = CN(CCc1c[nH]c2ccccc12)c1nc(Nc2ccc(F)c(F)c2)cc(N2CCCCC2)n1 [Example 15] , result: 4.95

---

Target: human GAL3 receptor (Homo sapiens)
Construct: expressed in transfected cells
Sequence (O60755 1-368): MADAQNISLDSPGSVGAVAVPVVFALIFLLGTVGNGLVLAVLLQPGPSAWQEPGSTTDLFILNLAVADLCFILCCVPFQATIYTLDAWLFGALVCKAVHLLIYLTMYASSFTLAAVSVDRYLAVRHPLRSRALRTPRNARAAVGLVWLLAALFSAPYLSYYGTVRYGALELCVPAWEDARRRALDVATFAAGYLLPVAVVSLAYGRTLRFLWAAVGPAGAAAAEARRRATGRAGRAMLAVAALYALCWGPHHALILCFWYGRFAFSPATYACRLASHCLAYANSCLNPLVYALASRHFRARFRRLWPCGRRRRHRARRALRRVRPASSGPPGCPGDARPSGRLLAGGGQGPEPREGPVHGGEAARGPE
Test: Radioligand binding at cloned human GAL3 receptor
Conditions: pyrimidines, cloned human receptor; read-out: Ki GalR3
# note: boundary value 200 nM maps to -1; Ki below it maps to 1

Exercise: Is Ki strictly under 200 nM for the entry COc1cccc(CCNc2nc(Nc3ccc(C)cc3)cc(N(C)C)n2)c1 [Example 149] ?
Solution: 1

Exercise: Confirm or reject: Ki of CN(C)c1cc(Nc2cc(Cl)ccc2Cl)nc(N2CCN(c3ccccn3)CC2)n1 [Example 208] lies strictly below 200 nM
Solution: 1

Exercise: Consider CN(C)c1cc(Nc2cccc(O)c2)nc(N2CCN(Cc3ccccc3)CC2)n1 [Example 155] . Does its Ki lie strictly below 200 nM?
Solution: -1

Exercise: Determine if Cc1ccc(Nc2cc(N(C)C)nc(N3CCN(c4ncccc4C#N)CC3)n2)cc1 [Example 241] shows Ki strictly lower than 200 nM.
Solution: -1

Exercise: # TODO verify Ki < 200 nM strictly for this molecule: Cc1ccc(Nc2cc(N(C)C)nc(N3CCN(CCc4ccccc4)CC3)n2)cc1 [Example 159]
Solution: 1

Exercise: Quick check: does CN(C)c1cc(Nc2ccc(Cl)cc2)nc(N2CCN(Cc3ccccc3)CC2)n1 [Example 171] have Ki under 200 nM?
Solution: 1

Exercise: Just wondering, is Ki of COc1cccc(Nc2cc(N(C)C)nc(N(C)CCc3ccccc3)n2)c1 [Example 251] below 200 nM?
Solution: 1

Exercise: Ki strictly < 200 nM for this molecule? Cc1ccc(Nc2cc(N3CCCCC3)nc(N3CCC(c4ccccc4)CC3)n2)cc1 [Example 24]
Solution: -1
